Overview of reported IC50, inhibition of IL-31 mediated STAT-3 phosphorylation in Ba/f3-OI cells across a group of binders:
# Target Entity: canine IL-31 receptor complex (IL-31RA and OSMR) on Ba/f3-OI cells (canine)
# Assay Explanation: cell-based or functional assay

Binder	Recorded Result
c218D9VH3VL3 (antibody, V domains shown, Caninized antibody; chains tied by name to c218D9VH3-cIgGBm and c218D9VL3-cCK; also called c218D9VH3L3) VH: EVTLQESGPGLVKPSQTLSLTCSFSGFSLSTFGRGVGWIRQRPGRGLEWMGHIWWDDDKYYNPALKSRLSITKDTAKNQFSLQLSSMTTEDTAVYYCARIAGGLRRAPYAMDSWGQGTLVTVSS VL: DIVMTQTPLSLSVSPGETASISCRASENIYSSLAWFRQKPGQSPQLLVYAATNLADGVPDRFSGSGSGTDYTLRISRVEADDTGVYYCQHFRDTPPTFGQGTKLEIKR	~2.5 nM
c218D9VH3VL2 (antibody, V domains shown, Caninized antibody; chains tied by name to c218D9VH3-cIgGBm and c218D9VL2-cCK; also called c218D9VH3L2) VH: EVTLQESGPGLVKPSQTLSLTCSFSGFSLSTFGRGVGWIRQRPGRGLEWMGHIWWDDDKYYNPALKSRLSITKDTAKNQFSLQLSSMTTEDTAVYYCARIAGGLRRAPYAMDSWGQGTLVTVSS VL: DIVMTQTPLSLSVSPGETASISCRASENIYSSLAWFRQKPGQSPQLLIYAATNLADGVPDRFSGSGSGTDFTLRISRVEADDTGVYYCQHFRDTPPTFGQGTKLEIKR	~230 nM
Chimeric 218D9 (antibody, V domains shown, canine constant regions not specified; also called mouse-canine chimeric 218D9 antibody) VH: QVTLKESGPGILQPSQTLSLTCSFSGFSLSTFGRGVGWIRQPSGKGLDWLTHIWWDDDKYYNPALKSRLTISKDTSKNQVFLKIANVDTADTATYYCARIAGGLRRAPYAMDSWGQGTSVTVSS VL: DIQMTQSPASLSVSVGETVTITCRASENIYSSLAWYQQKQGKSPQLLVYAATNLADGVPSRFSGSGSGTQYSLKINSLQSEDSGNYYCQHFRDTPPTFGGGTKLEIK	~2.2 nM

Item under review: c218D9VH4VL3 (antibody, V domains shown, Caninized antibody; chains tied by name to c218D9VH4-cIgGBm and c218D9VL3-cCK; also called c218D9VH4L3) VH: EVTLQESGPGLVKPSQTLSLTCSFSGFSLSTFGRGVGWIRQRPGRGLEWMGHIWWDDDKYYNPALKSRLSITKDTAKNQVFLQLSSMTTEDTAVYYCARIAGGLRRAPYAMDSWGQGTLVTVSS VL: DIVMTQTPLSLSVSPGETASISCRASENIYSSLAWFRQKPGQSPQLLVYAATNLADGVPDRFSGSGSGTDYTLRISRVEADDTGVYYCQHFRDTPPTFGQGTKLEIKR . Reported IC50, inhibition of IL-31 mediated STAT-3 phosphorylation in Ba/f3-OI cells? ~2.9 nM

Which IC50, inhibition of IL-31 mediated STAT-3 phosphorylation in Ba/f3-OI cells value belongs to c218D9VH4VL2 (antibody, V domains shown, Caninized antibody; chains tied by name to c218D9VH4-cIgGBm and c218D9VL2-cCK; also called c218D9VH4L2) VH: EVTLQESGPGLVKPSQTLSLTCSFSGFSLSTFGRGVGWIRQRPGRGLEWMGHIWWDDDKYYNPALKSRLSITKDTAKNQVFLQLSSMTTEDTAVYYCARIAGGLRRAPYAMDSWGQGTLVTVSS VL: DIVMTQTPLSLSVSPGETASISCRASENIYSSLAWFRQKPGQSPQLLIYAATNLADGVPDRFSGSGSGTDFTLRISRVEADDTGVYYCQHFRDTPPTFGQGTKLEIKR ? ~8.3 nM
